Biological target: human CaMKIIδ (Homo sapiens)
Construct: Full-length, glutathione-S-transferase(GST)-tagged, human CaMKIIδ was purchased from Carna Biosciences; purchased Carna Biosciences (CaMKIIδ); Wako Pure Chemical Industries (calmodulin) 02-111
Experiment: Evaluation of in vitro CaMKII inhibitory activity (binding assay, TR-FRET)
Details: human CaMKIIδ, TR-FRET binding assay; class symbols A/B/C; read-out: Act (CaMKII inhibitory activity, binding assay)
pIC50: −log10 of the molar value.
reported-metric: pIC50

Worked examples, 5 molecules total:
C[C@@H](Cn1cnnn1)Oc1cc(-c2ccc3ncc(-c4cccc(OCCN5C(=O)CCC5=O)c4C#N)n3n2)ccc1F : > 8.00
COc1ccnc(-c2cnc3ccc(-c4ccc(F)c(O[C@@H](CO)Cn5cnnn5)c4)nn23)c1C#N : > 8.00
C[C@@H](Cn1cnnn1)Oc1cc(-c2ccn3ncc(-c4ccccc4F)c3n2)ccc1F : > 8.00
C[C@@H](Cn1cnnn1)Oc1cc(-c2ccn3ncc(-c4ccccc4C(F)F)c3n2)ccc1F : 7.00 to 8.00
C[C@@H](Cn1cnnn1)Oc1cc(-c2ccc3ncc(-c4cccnc4N)n3n2)ccc1F : 7.00 to 8.00

Given the molecule C[C@@H](Cn1cnnn1)Oc1cc(-c2ccc3ncn(-c4cccn(C)c4=O)c3n2)ccc1F , what is its reported pIC50?
7.00 to 8.00

Try this molecule too: COC(=O)c1cccc(-c2cnn3ccc(-c4ccc(F)c(O[C@@H](C)Cn5cnnn5)c4)nc23)c1
> 8.00

###

Target: human CaMKIIδ (Homo sapiens)
Construct: Full-length, glutathione-S-transferase(GST)-tagged, human CaMKIIδ was purchased from Carna Biosciences; purchased Carna Biosciences (CaMKIIδ); Wako Pure Chemical Industries (calmodulin) 02-111
Assay: Evaluation of in vitro CaMKII inhibitory activity (binding assay, TR-FRET)
Settings: in vitro CaMKII inhibitory activity (binding assay), human CaMKIIδ; read-out: Act
pIC50: −log10 of the molar value.
Form field: pIC50 (one value per entry).

Given the compound C[C@@H](Cn1cnnn1)Oc1cccc(-c2ccc3ncc(-c4cncnc4C#N)n3n2)c1 [Example 267] , what is its reported pIC50?
> 8.00

Try this compound too: CCOc1nccc(-c2cnc3ccc(-c4cccc(O[C@@H](C)Cn5cnnn5)c4)nn23)c1C#N [compound 261]
> 8.00

Try this compound too: CC(O)c1ccc(C#N)c(-c2cnc3ccc(-c4cccc(O[C@@H](C)Cn5cnnn5)c4)nn23)n1 (stereo partly shown) [compound 390]
> 8.00

Try this compound too: C[C@@H](Cn1cnnn1)Oc1cccc(-c2ccc3ncc(-c4cc[n+]([O-])cc4C#N)n3n2)c1 [compound 282]
7.00 to 8.00

###

Biological target: human CaMKIIδ (Homo sapiens)
Construct: Full-length, glutathione-S-transferase(GST)-tagged, human CaMKIIδ was purchased from Carna Biosciences; purchased Carna Biosciences (CaMKIIδ); Wako Pure Chemical Industries (calmodulin) 02-111
Assay: Evaluation of in vitro CaMKII inhibitory activity (binding assay, TR-FRET)
Details: human CaMKIIδ, TR-FRET binding assay; class symbols A/B/C; read-out: Act (CaMKII inhibitory activity, binding assay)
pIC50: −log10 of the molar value.
reported-metric: pIC50

Worked examples, 5 molecules total:
C[C@@H](Cn1cnnn1)Oc1cc(-c2ccn3ncc(-c4ccccc4N4CCNCC4)c3n2)ccc1F [compound 55] : < 7.00
C[C@@H](Cn1cnnn1)Oc1cccc(-c2ccn3ncc(-c4cccc(C(=O)N5CCn6ncnc6C5)c4)c3n2)c1 [compound 110] : 7.00 to 8.00
COC(=O)c1cccc(-c2cnn3ccc(-c4ccc(C#N)c(O[C@@H](C)Cn5cnnn5)c4)nc23)c1 [compound 2] : < 7.00
C[C@@H](Cn1cnnn1)Oc1cc(-c2ccn3ncc(-c4cccc(C(F)(F)F)c4)c3n2)ccc1F [compound 130] : 7.00 to 8.00
C[C@@H](Cn1cnnn1)Oc1cc(-c2ccc3ncc(-c4cccc(OCC5CCC(=O)N5)c4C#N)n3n2)ccc1F (stereo partly shown) [compound 200] : > 8.00

Given the molecule C[C@@H](Cn1cnnn1)Oc1cc(-c2ccn3ncc(-c4cnn(C)c4)c3n2)ccc1F [compound 23] , what is its reported pIC50?
> 8.00

Try this molecule too: C[C@@H](Cn1cnnn1)Oc1cc(-c2ccc3ncn(-c4cccc(C(=O)O)c4)c3n2)ccc1F [compound 62]
7.00 to 8.00

###

Target: human CaMKIIδ (Homo sapiens)
Construct: Full-length, glutathione-S-transferase(GST)-tagged, human CaMKIIδ was purchased from Carna Biosciences; purchased Carna Biosciences (CaMKIIδ); Wako Pure Chemical Industries (calmodulin) 02-111
Test: Evaluation of in vitro CaMKII inhibitory activity (binding assay, TR-FRET)
Settings: in vitro CaMKII inhibitory activity (binding assay), human CaMKIIδ; read-out: Act
Method: Evaluation of In Vitro CaMKII Inhibitory Activity (Binding Assay) In vitro CaMKIIδ inhibitory activity was evaluated by a binding assay. Full-length bovine calmodulin was purchased from Wako Pure Chemical Industries (Osaka, Japan). […] Time-resolved fluorescence resonance energy transfer (TR-FRET) assay […] The half maximal inhibitory concentration (IC50) of test compounds was calculated by fitting the data with the logistic equation using XLfit (IDBS, Guildford, UK).
reported-metric: IC50

C[C@@H](Cn1cnnn1)Oc1cccc(-c2ccc3nnc(-c4ncccc4C#N)n3n2)c1 : > 100 nM
C[C@@H](Cn1cnnn1)Oc1cccc(-c2ccc3ncn(-c4cc(F)ccc4C#N)c3n2)c1 : < 10 nM
C[C@@H](Cn1cnnn1)Oc1cccc(-c2ccc3ncc(-c4ccccc4C#N)n3n2)n1 : < 10 nM
C[C@@H](Cn1cnnn1)Oc1cccc(-c2ccn3nc(F)c(-c4cc(F)ccc4C#N)c3n2)c1 : < 10 nM
CNc1ccc(C#N)c(-c2cnc3ccc(-c4cccc(O[C@@H](C)Cn5cnnn5)c4)nn23)n1 : < 10 nM
COCCCn1ncc(-c2cnc3ccc(-c4ccc(F)c(O[C@@H](C)Cn5cnnn5)c4)nn23)c1C(=O)N(C)C : > 100 nM
C[C@@H](Cn1cnnn1)Oc1cccc(-c2ccn3ncc(-c4nccnc4C#N)c3n2)c1 : < 10 nM

Turning to the following compound.
Observed IC50 on human CaMKIIδ (Homo sapiens) for C[C@@H](Cn1cnnn1)Oc1cc(-c2ccc3ncc(-c4cc(F)c[nH]c4=O)n3n2)ccc1F , please.
< 10 nM

###

Form field: IC50 (one value per entry).
Molecular target: human CaMKIIδ (Homo sapiens)
Construct: Full-length, glutathione-S-transferase(GST)-tagged, human CaMKIIδ was purchased from Carna Biosciences; purchased Carna Biosciences (CaMKIIδ); Wako Pure Chemical Industries (calmodulin) 02-111
Experiment: Evaluation of in vitro CaMKII inhibitory activity (binding assay, TR-FRET)
Settings: in vitro CaMKII inhibitory activity (binding assay), human CaMKIIδ; read-out: Act

Worked examples, 8 molecules total:
C[C@@H](Cn1cnnn1)Oc1cccc(-c2ccc3ncn(-c4cccc(OC(F)F)c4C#N)c3n2)n1 [compound 398] : 10 to 100 nM
COc1cc(Cl)cc(-n2cnc3ccc(-c4cncc(O[C@@H](C)Cn5cnnn5)n4)nc32)c1C#N [Example 448] : < 10 nM
C[C@@H](Cn1cnnn1)Oc1cccc(-c2ccc3ncn(-c4cc(OC(F)F)ccc4C#N)c3n2)n1 [compound 385] : > 100 nM
C[C@@H](Cn1cnnn1)Oc1cncc(-c2ccc3ncn(-c4cccc(Cl)c4C#N)c3n2)n1 [compound 446] : > 100 nM
COc1cccc(-c2cnc3ccc(-c4cncc(O[C@@H](C)Cn5cnnn5)n4)nn23)c1C#N [compound 428] : < 10 nM
C[C@@H](Cn1cnnn1)Oc1cccc(-c2ccc3ncc(-c4nccc(C(F)F)c4C#N)n3n2)n1 [compound 457] : 10 to 100 nM
C[C@@H](Cn1cnnn1)Oc1cc(-c2ccc3ncn(-c4cc(F)ccc4C#N)c3n2)cnn1 [Example 347] : 10 to 100 nM
COc1nccc(-c2cnc3ccc(-c4cccc(O[C@@H](C)Cn5cnnn5)n4)nn23)c1C#N [compound 403] : < 10 nM

Turning to the following molecule.
Given the molecule C[C@@H](Cn1cnnn1)Oc1cccc(-c2ccc3ncc(-c4cc(=O)[nH]cc4C#N)n3n2)n1 [compound 464] , what is its reported IC50?
< 10 nM

###

Form field: IC50 (one value per entry).
Target: human CaMKIIδ (Homo sapiens, UniProt Q13557)
Construct: Full-length, glutathione-S-transferase(GST)-tagged, human CaMKIIδ was purchased from Carna Biosciences; purchased Carna Biosciences (CaMKIIδ); Wako Pure Chemical Industries (calmodulin) 02-111
Experiment: Evaluation of in vitro CaMKII inhibitory activity (binding assay, TR-FRET)
Conditions: in vitro CaMKII inhibitory activity (binding assay), human CaMKIIδ; read-out: Act

Worked examples, 2 molecules total:
C[C@@H](Cn1cnnn1)Oc1cccc(-c2ccc3ncc(-c4nc[nH]c(=O)c4C#N)n3n2)c1 : < 10 nM
COc1cc(F)cc(-n2cnc3ccc(-c4cccc(O[C@@H](C)Cn5cnnn5)n4)nc32)c1C#N : < 10 nM

Given the molecule Cc1ccc(C#N)c(-c2cnc3ccc(-c4cccc(O[C@@H](C)Cn5cnnn5)c4)nn23)n1 , what is its reported IC50?
< 10 nM

Try this molecule too: COc1ncnc(-c2cnc3ccc(-c4cccc(O[C@@H](C)Cn5cnnn5)c4)nn23)c1C#N
< 10 nM

Try this molecule too: C[C@@H](Cn1cnnn1)Oc1cccc(-c2ccc3ncc(-c4cc(F)cc(OC(F)F)c4C#N)n3n2)n1
< 10 nM

Try this molecule too: CCOc1ncnc(-c2cnc3ccc(-c4cccc(O[C@@H](C)Cn5cnnn5)c4)nn23)c1C#N
< 10 nM

Try this molecule too: Cc1c(-c2cnc3ccc(-c4ccc(F)c(O[C@@H](C)Cn5cnnn5)c4)nn23)c(C(F)(F)F)nn1C
> 100 nM

Try this molecule too: C[C@@H](Cn1cnnn1)Oc1nc(-c2ccc3ncc(-c4cc(F)ccc4C#N)n3n2)ccc1F
< 10 nM

Try this molecule too: C[C@@H](Cn1cnnn1)Oc1cccc(-c2ccc3ncc(-c4cc(=O)n(C)cc4C#N)n3n2)c1
< 10 nM

Try this molecule too: C[C@@H](Cn1cnnn1)Oc1cccc(-c2ccc3ncc(-c4nc(C(F)(F)F)ccc4C#N)n3n2)c1
10 to 100 nM

FYI, the data here is from patent US12528816B2.
